# procedureDetails: chemical genetic growth profiling, strain panel (AID 1159580);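 note: tested at 20 µM; growth read once vehicle control cultures reached saturation at 30 °C; 1 = growth at the plate median or of vehicle wells; lower values mean less growth of the strain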
# conditions: S. cerevisiae deletion strains, growth OD, locus YDR162C, strain NBP2
About 2,000 (36%) of roughly 5,500 compounds were called active. Roughly 18% stayed inconclusive and do not appear here. Cut-off read from the data, not from the text of the source: active = normalized growth mostly below about 0.91 (no sharp cut-off); inconclusive = no clear call, values can overlap the other calls; inactive = mostly above about 0.92. The list shows a part of the results.
Permitted responses: active, inactive

Outcome logged for CC1COc2c(N3CCN(C)CC3)c(F)cc3c(=O)c(C(=O)O)cn1c23 (stereo unspecified) in this assay: inactive

---

# procedureDetails: chemical genetic growth profiling, strain panel (AID 1159580);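 note: tested at 20 µM; growth read once vehicle control cultures reached saturation at 30 °C; 1 = growth at the plate median or of vehicle wells; lower values mean less growth of the strain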
# conditions: S. cerevisiae deletion strains, growth OD, locus YIL073C, strain SPO22, stronger effect = lower value
Screen size: about 5,500 compounds; about 2,000 (36%) were called active. Not shown: some 18% with an inconclusive outcome. Some of the results follow.
Would you mind telling me the reported normalized growth of each entry?
Answers are plain numbers.

Some solved entries appear below for comparison.
| compound | normalized growth |
| --- | --- |
| CC(=O)S[C@@H]1CC2=CC(=O)CC[C@]2(C)[C@H]2CC[C@@]3(C)[C@@H](CC[C@@]34CCC(=O)O4)C12 (some centres undefined) | 1.05 |
| CC[C@@]1(O)C[C@H](O[C@H]2C[C@H](N(C)C)[C@H](O)[C@H](C)O2)c2c(cc3c(c2O)C(=O)c2c(O)ccc(O)c2C3=O)[C@H]1C(=O)OC | 0.134 |
| COc1cc2c(cc1OC)C(=O)c1ccc(OC)c(OC)c1OCC(=O)C2 | 0.954 |

Field: next compound
Which normalized growth value is on record for O=C1CCC(N2C(=O)c3ccccc3C2=O)C(=O)N1 (centres undefined) ? 1.01

---

# procedureDetails: chemical genetic growth profiling, strain panel (AID 1159580);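 note: tested at 20 µM; growth read once vehicle control cultures reached saturation at 30 °C; 1 = growth at the plate median or of vehicle wells; lower values mean less growth of the strain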
# conditions: S. cerevisiae deletion strains, growth OD, locus YBR009C, strain hhf1
The whole screen tested about 5,500 compounds, of which about 2,000 (36%) were called active. About 18% were inconclusive and are not listed. Rule as the data show it: active = normalized growth mostly below about 0.91 (no sharp cut-off); inconclusive = no clear call, values can overlap the other calls; inactive = mostly above about 0.92. The list shows a part of the results.
Permitted responses: label 1 for active, label 0 for inactive

| compound | category |
| --- | --- |
| CC1COc2c(N3CCN(C)CC3)c(F)cc3c(=O)c(C(=O)O)cn1c23 (centres undefined) | label 0 |

Outcome logged for CCC[C@H](N[C@@H](C)C(=O)N1[C@H](C(=O)O)C[C@@H]2CCCC[C@@H]21)C(=O)OCC in this assay: label 0

Outcome logged for CCN(CC)Cc1ccc(Nc2ccnc3cc(Cl)ccc23)cc1O in this assay: label 0

Outcome logged for COc1cc([C@@H]2c3cc4c(cc3C(OC3O[C@@H]5COC(C)O[C@H]5[C@H](O)[C@H]3O)C3COC(=O)[C@@H]32)OCO4)cc(OC)c1O (some centres undefined) in this assay: label 0

Outcome logged for NCCS(=O)(=O)O in this assay: label 0

Outcome logged for CCOC(=O)n1ccn(C)c1=S in this assay: label 0

Outcome logged for O=C(Oc1cc(O)cc2c1C[C@@H](OC(=O)c1cc(O)c(O)c(O)c1)[C@@H](c1cc(O)c(O)c(O)c1)O2)c1cc(O)c(O)c(O)c1 in this assay: label 0

Outcome logged for COc1cc([C@@H]2c3cc4c(cc3[C@@H](O)C3COC(=O)C32)OCO4)cc(OC)c1O (some centres undefined) in this assay: label 0

Outcome logged for CNC(=O)O/N=C(\C)SC in this assay: label 0

Outcome logged for OCC(O)CN1CCN(c2ccccc2)CC1 (centres undefined) in this assay: label 0
